IC50 for Tyrosine-protein kinase Lyn (Homo sapiens, UniProt P07948) - collated from the literature.

I'd like to know its IC50. The compound in question is C[C@@H]1COCCN1c1nc(-c2cncc3[nH]ccc23)nc2c1ccn2S(C)(=O)=O
> 10 µM

I'd like to know its IC50. The compound in question is CCc1cccc(CC)c1NC(=O)c1nn(C)c2c1CCc1cnc(Nc3ccc(C(=O)NC4CCN(C)CC4)cc3OC(F)(F)F)nc1-2
> 10 µM

I'd like to know its IC50. The compound in question is CC(=O)N[C@H]1CC[C@H](c2ncc(Cl)c(Nc3ccccc3S(=O)(=O)C(C)C)n2)CC1
> 10 µM
